System: SH-SY5Y human neuroblastoma cells
Test: LDH and MTT cell viability assays
Type: cell-based
Details: 5 h, compared to DMSO or untreated controls
Procedure: BK50118-B and BK50118-C (Figure 2C,D) decreased cell viability near and above 100 μM compared to DMSO or untreated controls. CL3-499 (Figure 2G) decreased cell viability near and above 1 mM compared to DMSO or untreated controls. SH-SY5Y cells were transiently transfected for 24 h with human wild-type α-synuclein using Fugene HD transfection reagent (Promega, E2311, Madison, WI, USA) according to manufacturer’s protocol. […]
quantity-measured: concentration near and above which cell viability decreased

Example cases with answers are listed next.
- compound: "Fc1ccc2nccc(NCc3ccccc3)c2c1"
  result: "≥ 1000 µM"
- compound: "Fc1ccc2nccc(OCc3ccccc3)c2c1"
  result: "≥ 100 µM"
- compound: "Fc1ccc2nccc(Nc3ccccc3)c2c1"
  result: "≥ 100 µM"

Now for the compound whose concentration near and above which cell viability decreased we want.
I am curious: what concentration near and above which cell viability decreased value has been reported for c1ccc(Nc2ccnc3ccsc23)cc1 [BK50118-A, N-phenylthieno[3,2-b]pyridin-7-amine] ? ≥ 0.1 µM

---

Experiment: Pharmacokinetics in wild type C57BL6 mice (brain and serum, UHPLC-MS/MS)
Assay type: in vivo
Settings: C57BL/6, mouse, ip, serum, 10 mg/kg I.P.
Experimental: Wild type C57BL6 mice were injected with 10 mg/kg BK50118-C versus DMSO, and the brain and serum were isolated at 0, 1, 2, 4, 6, 8 and 12 h; extracted in water and examined by mass spectrometry. […] Elimination (T1/2) was 2.32 h for brain and 1.84 h in serum. […] The concentrations of BK50118-C in the brain tissue and serum samples were measured by ultrahigh performance liquid chromatography tandem mass spectrometry (UHPLC-MS/MS). […]
quantity-measured: Tmax (h)
Record the value in h, omitting the unit from your answer.

I am curious: what Tmax value has been reported for Fc1ccc2nccc(OCc3ccccc3)c2c1 ? 1

---

Test: Pharmacokinetics in wild type C57BL6 mice (brain and serum, UHPLC-MS/MS)
Assay type: in vivo
Conditions: C57BL/6, mouse, ip, serum, 10 mg/kg I.P., over 12 h
quantity-measured: AUC (µM·h)
Record the value in µM·h, omitting the unit from your answer.

I am curious: what AUC value has been reported for Fc1ccc2nccc(OCc3ccccc3)c2c1 ? 0.599

---

Assay: Pharmacokinetics in wild type C57BL6 mice (brain and serum, UHPLC-MS/MS)
Assay type: in vivo
Conditions: C57BL/6, mouse, ip, brain, 10 mg/kg I.P.
quantity-measured: Tmax (h)
Record the value in h, omitting the unit from your answer.

I am curious: what Tmax value has been reported for Fc1ccc2nccc(OCc3ccccc3)c2c1 ? 1

---

Assay: Pharmacokinetics in wild type C57BL6 mice (brain and serum, UHPLC-MS/MS)
Type: in vivo
Conditions: C57BL/6, mouse, ip, serum, 10 mg/kg I.P., read-out: T1/2 (elimination) (converted)
quantity-measured: half-life (h)
Record the value in h, omitting the unit from your answer.

I am curious: what half-life value has been reported for Fc1ccc2nccc(OCc3ccccc3)c2c1 [BK50118-C, 4-benzyloxy-6-fluoroquinoline] ? 1.84
